# Tested on: SK-MEL-2
# ASSAY_COMMENT: NCI tumour cell line growth inhibition, 48 h
Calls of active or inactive are those of the source. No stated cut-off is given here; in the data, active = GI50 up to about 1.1 µM and inactive = higher.
MEASURED_ENDPOINT: GI50

| COMPOUND | MEASURED_ENDPOINT | REPORTED_VALUE |
| --- | --- | --- |
| Cc1cn(C2CC(N=[N+]=[N-])C(CO[Si](C)(C)C(C)(C)C)O2)c(=O)[nH]c1=O (stereo not drawn) | GI50 | 15.2 µM (inactive) |
| Cc1ccc(S(N)(=O)=O)cc1 [P-TOLUENESULFONAMIDE] | GI50 | > 1000 µM (inactive) |
| CC12CCC(=O)N1c1cncnc1N2 (stereo not drawn) | GI50 | > 10 µM (inactive) |
| COC(=O)C(CCCCCCCC(C(=O)OC)C1=Nc2nnc(N)n2C1=O)C1=Nc2nnc(N)n2C1=O (stereo not drawn) | GI50 | > 100 µM (inactive) |
| CCCCCc1nnc(NS(=O)(=O)c2ccc(NC(=O)OCC(C)C)cc2)s1 | GI50 | 19.1 µM (inactive) |
| CS(=O)(=O)c1cc(=O)c2ccccc2s1 | GI50 | 15.3 µM (inactive) |
| C[Si](C)(C)CC(N)=O | GI50 | > 100 µM (inactive) |
| COC(=O)/C(=N\NC(=S)NN)C(C(=O)OC)C(=O)C(=O)Nc1cccc(C(F)(F)F)c1 (stereo not drawn) | GI50 | > 100 µM (inactive) |
| Cc1nnc2sc(Cl)nn12 | GI50 | 24.1 µM (inactive) |
| CCOC(=O)C(C(=O)c1ccccc1-c1ccccc1C(=O)O)=P(c1ccccc1)(c1ccccc1)c1ccccc1 | GI50 | 20.6 µM (inactive) |
| COC(=O)[C@@H]1[C@H](O)CC[C@H]2[C@@]1(C)CC[C@@H](C)[C@]2(COC(C)=O)CC(=O)c1ccoc1 | GI50 | > 50 µM (inactive) |
| Cc1cc(N(CCC#N)CCC#N)ccc1C(/N=N/c1ccc([N+](=O)[O-])cc1)=N\NC(=O)c1cc(Cl)ccc1C(=O)c1ccccc1 | GI50 | 11.1 µM (inactive) |
| N#C/C=C\c1ccc(-c2cc(C(F)(F)F)cc(C(F)(F)F)c2)o1 | GI50 | 15.6 µM (inactive) |
| CCOC(=O)C(NC(=O)c1nc[nH]c1[N+](=O)[O-])C(C)C (stereo not drawn) | GI50 | > 100 µM (inactive) |
| NC(Cc1ccccc1)(C(=O)O)C(=O)O | GI50 | > 100 µM (inactive) |
| O=C(O)c1ccccc1Cc1ccco1 | GI50 | > 100 µM (inactive) |
| O=C1CC(=O)N(c2ccccc2)N1/C(=C/c1ccccc1)c1ccccc1 | GI50 | 23.7 µM (inactive) |
| CCCCCCCCC(=O)CCCCCCCCC(=O)O | GI50 | 36.1 µM (inactive) |
| COc1cc2c(cc1OC)C1[C@@H](c3ccccc3)OCN1CC2 (stereo partly drawn) | GI50 | > 100 µM (inactive) |
| O=C(NCCCCCCNC(=O)n1cc(F)c(=O)[nH]c1=O)NCCCOCCOCCCNC(=O)C(O)C(O)C(O)C(O)CO (stereo not drawn) | GI50 | > 2.5 µM (inactive) |
| COc1ccc(/N=c2\ssc(C(=S)Nc3ccc(OC)cc3)c2S)cc1 | GI50 | > 100 µM (inactive) |
| O=C1/C(=C/Cc2ccco2)N=C(c2ccccc2)N1c1nc2ccc(Sc3ccccc3)cc2[nH]1 | GI50 | 16.1 µM (inactive) |
| COC1(OC)N=C(N)C2(C#N)C(C)CC(=O)N(N(C)C)C12C#N (stereo not drawn) | GI50 | > 100 µM (inactive) |
| Cc1ccc([S+]([O-])C[C@](NC(=O)OCc2ccccc2)(Sc2ccccc2)C(F)F)cc1 (stereo partly drawn) | GI50 | 27.6 µM (inactive) |
| N=C(N)Nc1ccc(CC(N)NCC(=O)O)cc1 (stereo not drawn) | GI50 | > 25 µM (inactive) |
| COc1ccc2c(c1)C(=O)c1ccc(OC)cc1C2=S | GI50 | > 100 µM (inactive) |
| N#C/C(=C\c1ccc(F)cc1)c1nc2ccccc2c(=O)[nH]1 | GI50 | > 100 µM (inactive) |
| CN(C)c1ccc(C=C2N=C(c3ccccc3)N(c3cc(C(=O)c4ccccc4)ccc3N3C(=O)/C(=C/c4ccc(N(C)C)cc4)N=C3c3ccccc3)C2=O)cc1 | GI50 | 3.29 µM (inactive) |
| CC1(C)[C@H]2CC[C@]1(C)[C@H](OC(=O)NNC(=O)O[C@@H]1C[C@@H]3CC[C@@]1(C)C3(C)C)C2 | GI50 | 16.8 µM (inactive) |
| O=C1CCSc2c(cnc3ccccc23)N1 | GI50 | 80 µM (inactive) |
| c1nnc(NCNc2nncs2)s1 | GI50 | 68.9 µM (inactive) |
| O=c1[nH]nc(Cc2ccc(Cl)cc2)n1Nc1ccccc1 | GI50 | > 100 µM (inactive) |
| CC(=O)NC(Cc1ccsc1)C(=O)O (stereo not drawn) | GI50 | > 100 µM (inactive) |
| Cc1ccc(SC2C(C)(C)N(C(C)C)P2(=O)N(C(C)C)C(C)C)cc1 (stereo not drawn) | GI50 | 67 µM (inactive) |
| CC1(C)OC2COC3(CNO)OC(C)(C)OC3C2O1 (stereo not drawn) | GI50 | > 100 µM (inactive) |
| [N-]=[N+]=CC(=O)CCC(=O)N(c1ccccc1)c1ccccc1 | GI50 | 6.98 µM (inactive) |
| c1ccc(-c2nc(-c3ccccc3)c(-c3ccccc3)[nH]2)cc1 | GI50 | > 100 µM (inactive) |
| C[C@@H]1CCC2C(C)(C)C(/C=C\C=O)C3(C)OC213 (stereo partly drawn) | GI50 | 42.9 µM (inactive) |
| COc1ccc(-c2c(C#N)c(N)nc3c2CCS(=O)(=O)c2ccccc2-3)cc1 | GI50 | > 100 µM (inactive) |
| CCOC(=O)c1nnsc1N/N=C\c1ccc([N+](=O)[O-])cc1 | GI50 | > 100 µM (inactive) |
| CCCNC(=O)Cn1c2c(c3ccccc31)CCCC2 | GI50 | > 100 µM (inactive) |
| C=CCOCCCC(=O)C(=[N+]=[N-])C(=O)OC | GI50 | > 100 µM (inactive) |
| O=S(=O)(O)c1cc(/N=N/c2cccc3ccccc23)c(O)c2ncccc12 | GI50 | 82 µM (inactive) |
